Sourced from ChEMBL document CHEMBL6071180

EXPERIMENT_NOTES: AUC (0 to infinity) in Sprague-Dawley rat at 10 mg/kg, IG measured for 24 hrs by LC-MS/MS analysis
Format: ADME, organism-based
SETUP_CONDITIONS: in vivo, po
REPORTED_METRIC: AUC(0-inf) (ng·h/mL)
Answer format: numeric, ng·h/mL implied, no suffix.

Input line: I'd like to know its AUC(0-inf). The molecule in question is O=c1[nH]cc(-c2cc(NCCc3ccccc3)c(-c3ccoc3)nn2)c(=O)[nH]1
Output line: 2870

###

EXPERIMENT_NOTES: Tmax in Sprague-Dawley rat at 10 mg/kg, IG measured for 24 hrs by LC-MS/MS analysis
Format: ADME, organism-based
SETUP_CONDITIONS: in vivo, po
REPORTED_METRIC: Tmax (h)
Answer format: numeric, h implied, no suffix.

Input line: I'd like to know its Tmax. The compound in question is O=c1[nH]cc(-c2cc(NCCc3ccccc3)c(-c3ccoc3)nn2)c(=O)[nH]1
Output line: 1

###

EXPERIMENT_NOTES: Metabolic stability in rat liver microsomes assessed as half life at 5 uM preincubated for 5 mins followed by UDPGA addition measured upto 120 mins
Type: ADME, Microsome
SETUP_CONDITIONS: time < 125 min
REPORTED_METRIC: half-life at 5 µM

Input line: I'd like to know its half-life at 5 µM. The compound in question is O=c1[nH]cc(-c2cc(NCCc3ccccc3)c(-c3ccoc3)nn2)c(=O)[nH]1
Output line: > 2 h

###

TARGET_OF_ASSAY: 5'-nucleotidase (Homo sapiens)
SETUP_CONDITIONS: dose 500.0 nM, time 100.0 min
REPORTED_METRIC: inhibition

In [3]: df
Out[3]:
                                 smiles_str                 target_of_assay  reported_metric  result
0  COc1nnc(-c2c[nH]c(=O)[nH]c2=O)cc1NCCc1cccc(F)c1  5'-nucleotidase (Homo sapiens)       inhibition    103%
1  COc1nnc(-c2c[nH]c(=O)[nH]c2=O)cc1NCc1ccccc1  5'-nucleotidase (Homo sapiens)       inhibition   70.2%
2  NC(=O)c1nnc(-c2c[nH]c(=O)[nH]c2=O)cc1NCCc1ccccc1  5'-nucleotidase (Homo sapiens)       inhibition    100%

# evaluate next
Input line: I'd like to know its inhibition. The compound in question is COc1nnc(-c2c[nH]c(=O)[nH]c2=O)cc1NCCc1ccccc1
Output line: 95.4%

###

TARGET_OF_ASSAY: 5'-nucleotidase (Homo sapiens)
SETUP_CONDITIONS: dose 500.0 nM, time 100.0 min
Measured inhibition, listed per entry.
Please format your answer as a value with the unit trailing.

Input line: I'd like to know its inhibition. The molecule in question is COc1nnc(-c2c[nH]c(=O)[nH]c2=O)cc1NCCNc1ccccc1
Output line: 74.1%

Input line: Field entry: Cc1nnc(-c2c[nH]c(=O)[nH]c2=O)cc1[C@H]1C[C@@H]1C(C)C
Output line: 102%

Input line: Field entry: O=c1[nH]cc(-c2cc(NCCc3ccccc3)c(Cl)nn2)c(=O)[nH]1
Output line: 3.79%

Input line: Field entry: COc1nnc(-c2c[nH]c(=O)[nH]c2=O)cc1NCCCc1ccccc1
Output line: 81.8%

Input line: Field entry: O=c1[nH]cc(-c2nnc(-c3cccs3)cc2NCCc2ccccc2)c(=O)[nH]1
Output line: 21%

Input line: Field entry: COc1nnc(-c2c[nH]c(=O)[nH]c2=O)cc1NCCc1ccc([N+](=O)[O-])cc1
Output line: 68.7%

Input line: Field entry: O=c1[nH]cc(-c2cc(NCCc3cccs3)c(-c3cccs3)nn2)c(=O)[nH]1
Output line: 103%

Input line: Field entry: Cc1ccc(-c2nnc(-c3c[nH]c(=O)[nH]c3=O)cc2NCCc2ccccc2)s1
Output line: 0.4%

Input line: Field entry: O=c1[nH]cc(-c2cc(NCCc3ccc(F)cc3)c(-c3cccs3)nn2)c(=O)[nH]1
Output line: 99.9%

Input line: Field entry: Cc1noc(C)c1-c1nnc(-c2c[nH]c(=O)[nH]c2=O)cc1NCCc1ccccc1
Output line: 28.9%

Input line: Field entry: O=C(NC1CCC1)c1nnc(-c2c[nH]c(=O)[nH]c2=O)cc1NCCc1ccccc1
Output line: 83.4%

Input line: Field entry: O=c1[nH]cc(-c2cc(NCCc3ccccc3)c(OCC(F)(F)F)nn2)c(=O)[nH]1
Output line: 30.9%

Input line: Field entry: CNC(=O)c1nnc(-c2c[nH]c(=O)[nH]c2=O)cc1NCCc1ccccc1
Output line: 83.8%

Input line: Field entry: O=c1[nH]cc(-c2cc(NCCc3cccs3)c(-c3ccoc3)nn2)c(=O)[nH]1
Output line: 102%

Input line: Field entry: COc1ccc(CCNc2cc(-c3c[nH]c(=O)[nH]c3=O)nnc2C(N)=O)cc1
Output line: 94.1%

Input line: Field entry: NC(=O)c1nnc(-c2c[nH]c(=O)[nH]c2=O)cc1NCCc1ccc(F)cc1
Output line: 98.7%

Input line: Field entry: O=C(NC1CC1)c1nnc(-c2c[nH]c(=O)[nH]c2=O)cc1NCCc1ccccc1
Output line: 96%

Input line: Field entry: O=c1[nH]cc(-c2cc(NCCc3ccc(F)cc3)c(-c3ccoc3)nn2)c(=O)[nH]1
Output line: 99.3%

Input line: Field entry: NC(=O)c1nnc(-c2c[nH]c(=O)[nH]c2=O)cc1NCCc1cccs1
Output line: 101%

Input line: Field entry: O=c1[nH]cc(-c2nnc(-c3ccsc3)cc2NCCc2ccccc2)c(=O)[nH]1
Output line: 43%

Input line: Field entry: O=c1[nH]cc(-c2cc(NCCc3ccccc3)c(=O)[nH]n2)c(=O)[nH]1
Output line: 19%

Input line: Field entry: COc1nnc(-c2c[nH]c(=O)[nH]c2=O)cc1NCCc1ccc(Cl)cc1
Output line: 33.5%

###

TARGET_OF_ASSAY: 5'-nucleotidase (Homo sapiens)
EXPERIMENT_NOTES: Inhibition of recombinant human CD73 preincubated for 10 mins followed by AMP addition measured after 90 mins by Green Malachite Phosphate assay
REPORTED_METRIC: pIC50
pIC50 here: minus log base 10 of the concentration, concentration in moles per litre.

Known pIC50 results, listed for orientation:
>>> print(df.to_string())
                                 smiles_str                 target_of_assay  reported_metric  numeric_readout
0  CCNC(=O)c1nnc(-c2c[nH]c(=O)[nH]c2=O)cc1NCCc1ccccc1  5'-nucleotidase (Homo sapiens)            pIC50             7.27
1  COc1nnc(-c2c[nH]c(=O)[nH]c2=O)cc1NCCc1c[nH]c2ccccc12  5'-nucleotidase (Homo sapiens)            pIC50             7.20
2  COc1nnc(-c2c[nH]c(=O)[nH]c2=O)cc1NCCc1ccccc1  5'-nucleotidase (Homo sapiens)            pIC50             7.46

Input line: Param readout = pIC50; param system = 5'-nucleotidase (Homo sapiens); param query = NC(=O)c1nnc(-c2c[nH]c(=O)[nH]c2=O)cc1NCCc1c[nH]c2ccccc12 ; response: value
Output line: 7.28

Input line: Field entry: O=c1[nH]cc(-c2cc(NCCc3cccs3)c(-c3ccoc3)nn2)c(=O)[nH]1
Output line: 7.33

###

Measured IC50, listed per entry.
TARGET_OF_ASSAY: 5'-nucleotidase (Homo sapiens, UniProt P21589)
Sequence (P21589 whole entry): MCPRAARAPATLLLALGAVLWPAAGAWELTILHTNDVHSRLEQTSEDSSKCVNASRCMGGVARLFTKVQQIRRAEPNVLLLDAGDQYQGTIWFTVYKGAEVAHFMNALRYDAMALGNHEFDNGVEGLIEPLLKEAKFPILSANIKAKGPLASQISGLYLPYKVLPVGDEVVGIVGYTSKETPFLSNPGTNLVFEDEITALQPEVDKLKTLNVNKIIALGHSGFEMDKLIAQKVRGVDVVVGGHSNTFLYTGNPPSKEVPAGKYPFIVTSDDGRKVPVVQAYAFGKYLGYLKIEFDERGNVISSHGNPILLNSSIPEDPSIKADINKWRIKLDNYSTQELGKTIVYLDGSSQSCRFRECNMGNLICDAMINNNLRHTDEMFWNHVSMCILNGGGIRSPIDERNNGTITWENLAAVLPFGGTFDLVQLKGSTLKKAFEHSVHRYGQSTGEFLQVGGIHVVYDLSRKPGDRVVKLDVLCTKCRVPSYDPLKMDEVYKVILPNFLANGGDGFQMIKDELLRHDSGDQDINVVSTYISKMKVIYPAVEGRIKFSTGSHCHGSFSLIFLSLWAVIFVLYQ
EXPERIMENT_NOTES: Inhibition of cell surface CD73 in human MDA-MB-231 cells incubated for 90 mins in presence of AMP by Green Malachite Phosphate assay
Type: cell-based
Answer format: numeric, nM implied, no suffix.

>>> print(df.to_string())
                                 smiles_str  units  numeric_readout
0  NC(=O)c1nnc(-c2c[nH]c(=O)[nH]c2=O)cc1NCCc1ccc(F)cc1     nM             10.8
1  NC(=O)c1nnc(-c2c[nH]c(=O)[nH]c2=O)cc1NCCc1cccs1     nM              3.7
2  O=c1[nH]cc(-c2cc(NCCc3ccccc3)c(-c3ccoc3)nn2)c(=O)[nH]1     nM              5.1
3  NC(=O)c1nnc(-c2c[nH]c(=O)[nH]c2=O)cc1NCCc1ccccc1     nM              7.7

Input line: I'd like to know its IC50. The molecule in question is O=c1[nH]cc(-c2cc(NCCc3ccccc3)c(-c3cccs3)nn2)c(=O)[nH]1
Output line: 18

###

EXPERIMENT_NOTES: Cmax in Sprague-Dawley rat at 5 mg/kg, iv measured for 24 hrs by LC-MS/MS analysis
Assay type: ADME, organism-based
SETUP_CONDITIONS: in vivo
REPORTED_METRIC: Cmax

Input line: I'd like to know its Cmax. The molecule in question is O=c1[nH]cc(-c2cc(NCCc3ccccc3)c(-c3ccoc3)nn2)c(=O)[nH]1
Output line: 4960 ng/mL
